target: XIAP BIR3 (Homo sapiens, UniProt P98170); experiment: Peptide–BIR3 binding assay; settings: IC50, inhibition of Smac–BIR3 interaction, FMAT
Sequence (P98170 241-356 limits assumed): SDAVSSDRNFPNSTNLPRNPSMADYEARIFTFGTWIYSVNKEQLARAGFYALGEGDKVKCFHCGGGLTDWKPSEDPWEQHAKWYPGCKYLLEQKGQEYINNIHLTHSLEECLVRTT
pIC50: −log10 of the molar value. Ends that are not written are not given here.

[
  {
    "substance": "AVPIAQ-NH2 [Compound 2, AVPIAQ]",
    "pIC50": 6.57
  }
]

====

target: XIAP BIR3 (Homo sapiens, UniProt P98170); test: Peptide–BIR3 binding assay
Square brackets hold non-standard residues; d marks the D form. Peptide text beside a SMILES is read from it. Abu = CC[C@H](N)C(=O)O
measured.attribute: log10 of IC50 (log10 of the value in nM)

[
  {
    "molecule": "CC(C)[C@H](NC(=O)[C@@H](N)CO)C(=O)N1CCC[C@H]1C(=O)N[C@@H](Cc1ccccc1)C(N)=O [Compound 10, SVPF] (H-SVPF-NH2)",
    "measured.attribute": "log10 of IC50",
    "value.reported": 3.00
  },
  {
    "molecule": "CC(C)[C@H](NC(=O)[C@H](C)N)C(=O)N[C@@H](C)C(=O)N[C@@H](Cc1ccccc1)C(N)=O",
    "measured.attribute": "log10 of IC50",
    "value.reported": 2.88
  },
  {
    "molecule": "CC(C)C[C@H](NC(=O)[C@H](C)N)C(=O)N1CCC[C@H]1C(=O)N[C@@H](Cc1ccccc1)C(N)=O [Compound 15, ALPF] (H-ALPF-NH2)",
    "measured.attribute": "log10 of IC50",
    "value.reported": 2.26
  },
  {
    "molecule": "CC[C@H](N)C(=O)N[C@H](C(=O)N1CCC[C@H]1C(=O)N[C@@H](Cc1ccccc1)C(N)=O)C(C)C [Compound 9, Abu–VPF] (H-[Abu]VPF-NH2)",
    "measured.attribute": "log10 of IC50",
    "value.reported": 2.08
  },
  {
    "molecule": "CC[C@H](C)[C@H](NC(=O)[C@H](C)N)C(=O)N1CCC[C@H]1C(=O)N[C@@H](Cc1ccccc1)C(N)=O [Compound 16, AIPF] (H-AIPF-NH2)",
    "measured.attribute": "log10 of IC50",
    "value.reported": 1.90
  },
  {
    "molecule": "CC(C)[C@H](NC(=O)[C@H](C)N)C(=O)N1C[C@H](O)C[C@H]1C(=O)N[C@@H](Cc1ccccc1)C(N)=O",
    "measured.attribute": "log10 of IC50",
    "value.reported": 3.00
  },
  {
    "molecule": "CC[C@H](C)[C@H](NC(=O)[C@H](C)N)C(=O)N[C@@H](C)C(=O)N[C@@H](Cc1ccc(O)cc1)C(N)=O [Compound 8, AIAY] (H-AIAY-NH2)",
    "measured.attribute": "log10 of IC50",
    "value.reported": 2.53
  },
  {
    "molecule": "C[C@H](N)C(=O)N[C@H](C(=O)N1CCC[C@H]1C(=O)N[C@@H](Cc1ccccc1)C(N)=O)[C@@H](C)O [Compound 17, ATPF] (H-ATPF-NH2)",
    "measured.attribute": "log10 of IC50",
    "value.reported": 2.30
  }
]

====

target: GST–BIR3 (Homo sapiens); format: biochemical
Ends that are not written are not given here.
IC50 values, listed per item
measured.attribute: IC50 (µM)

[
  {
    "substance": "AVPFAQK-NH2 [AVPFAQK]",
    "measured.attribute": "IC50",
    "output.unit": "µM",
    "value.reported": 2
  },
  {
    "substance": "AVPIAQK-NH2 [Compound 1, AVPIAQK]",
    "measured.attribute": "IC50",
    "output.unit": "µM",
    "value.reported": 3
  }
]
